Biological target: 5-hydroxytryptamine receptor 2A (Homo sapiens)
Assay: Agonist activity at N-terminal HA-tagged human 5HT2A receptor transfected in CHO-K1 cells co-expressing C-terminal EYFP measured for 5.5 hrs in presence of serotonin by ONE-Glo reagent based luciferase assay
Type: functional, cell-based
measured attribute: EC50
# include the unit after the value

Observed EC50 on 5-hydroxytryptamine receptor 2A (Homo sapiens), entry `CC1=N[C@H](C(=O)O)Cc2c[nH]c3c(O)ccc1c23` , equals 25.4 nM

====

Target: 5-hydroxytryptamine receptor 2A (Homo sapiens, UniProt P28223)
Sequence (P28223 whole entry): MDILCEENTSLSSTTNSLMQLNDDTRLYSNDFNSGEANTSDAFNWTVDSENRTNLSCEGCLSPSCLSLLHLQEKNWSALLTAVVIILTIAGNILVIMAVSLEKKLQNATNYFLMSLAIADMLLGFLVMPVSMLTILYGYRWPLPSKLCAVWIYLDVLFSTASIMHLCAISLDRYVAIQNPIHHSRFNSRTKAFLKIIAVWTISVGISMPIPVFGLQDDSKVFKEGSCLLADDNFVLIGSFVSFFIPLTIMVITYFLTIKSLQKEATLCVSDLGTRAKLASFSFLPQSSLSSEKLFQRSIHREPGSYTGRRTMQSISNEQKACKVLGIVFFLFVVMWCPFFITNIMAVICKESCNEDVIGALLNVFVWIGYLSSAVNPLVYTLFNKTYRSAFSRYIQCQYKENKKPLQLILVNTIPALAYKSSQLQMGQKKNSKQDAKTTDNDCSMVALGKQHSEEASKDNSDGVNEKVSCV
Assay: Agonist activity at N-terminal HA-tagged human 5HT2A receptor transfected in CHO-K1 cells co-expressing C-terminal EYFP measured for 5.5 hrs by ONE-Glo reagent based luciferase assay
Type: functional, cell-based
measured attribute: EC50

Recorded result, `CC1=N[C@H](C(=O)O)Cc2c[nH]c3c(O)ccc1c23` , EC50: > 10 µM
